As shown below, each of these binders has a reported kon value.
# TGT: biotinylated recombinant human CLL-1 extracellular domain protein, isoform with glutamine at amino acid position 244 (human) (UniProt Q5QGZ9)
# Sequence (Q5QGZ9 65-265): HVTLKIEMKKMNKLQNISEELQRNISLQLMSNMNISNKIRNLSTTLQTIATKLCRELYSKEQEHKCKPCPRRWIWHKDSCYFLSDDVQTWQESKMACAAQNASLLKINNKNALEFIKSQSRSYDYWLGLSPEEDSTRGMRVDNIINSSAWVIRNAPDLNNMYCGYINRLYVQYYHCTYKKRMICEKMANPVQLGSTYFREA
# TEST DESCRIPTION: BLItz, 1:1 model (Q244 per FIG. 12B)
Numbers only; they are read as M⁻¹ s⁻¹.

>  <BINDER>
Anti-CLL-1 Binder Clone 40 (scFv, not shown: small tags and cut ends) scFv: QSVLTQPPSVSAAPGQKVTISCSGSSSNIGNNYVSWYQQLPGTAPKLLIYDNNKRPSGIPDRFSGSESGTSATLGITGLQTGDEADYYCGTWDSSLSAWVFGGGTQLIILGGGGSGGGGSGGGGSQVQLQQSGPGLVKPSQTLSLTCAISGDSVSSNSAAWNWIRQSPSRGLEWLGRTHYRSKWYNDYAVSVKSRITISADTSKNQFSLQLNSVTPEDTAVYYCARDRYTVRPDAFDIWGQGTTVTVSS

>  <kon, M⁻¹ s⁻¹>
58000

$$$$
>  <BINDER>
Anti-CLL-1 Binder Clone 12 (scFv, not shown: small tags and cut ends) scFv: DIQMTQSPSSLSASVGDRVTITCQASQDISNYLNWYQQKPGKAPKLLIYDASNLETGVPSRFSGSGSGTDFTLTISSPQPEDLATYYCQQANSFPFTFGQGTKVEIKGGGGSGGGGSGGGGSQVQLVQSGAEVKKPGSSVKVSCKASGYSFTRNDITWVRQANGRGLEWLGRLNPNNGDTVYAEVFQGRVAMTRDTSTDTAYMELASLKSDDTAVYFCARGFWSFDVWGQGTMVTVSS

>  <kon, M⁻¹ s⁻¹>
76000

$$$$

Which kon value is on record for Anti-CLL-1 Binder Clone 41 (scFv, not shown: small tags and cut ends) scFv: QSVLTQPASVSGSLGQSITISCTGTSRDVGGYNFVSWYQQHPGKAPKLIIFDVTTRPSGLSDRFSASKSGNTASLTISGLQAEDEADYFCGSYTASDTMLFGGGTKLTVLGGGGSGGGGSGGGGSQVQLLESGGGVVQPGRSLRLSCAASGFTFDDYAMHWVRQAPGKGLEWVSGISWNSGSIGYADSVKGRFTVSRDNSKNTLYQQMNGLRAEDTAVYYCAREGRPTAFDYWGQGTTVTVSS ? 100000
